Listed molecules paired with reported viability at 24 h, 100 µM
# runDescription: Cytotoxicity against […] BV2 cells assessed as cell viability at 100 uM after 24 hrs by MTT assay
# Type: cell-based
# details: read-out: Activity
A complete answer gives the number and then names the unit.

CCCCCCCCCCS(=O)(=O)/C=C/c1ccc(O)c(O)c1 :: 34.1%
O=S(=O)(/C=C/c1ccc(O)c(O)c1)CCCCCCCCO :: 49.5%
O=S(=O)(/C=C/c1ccc(O)c(O)c1)CC1CCCN1 (configuration not stated) :: 76.4%
O=S(=O)(/C=C/c1ccc(O)c(O)c1)CCC1CCCC1 :: 76.6%
CCCCCCS(=O)(=O)/C=C/c1ccc(O)c(O)c1 :: 56.2%

Ask: Which viability at 24 h, 100 µM is reported for this molecule? "O=S(=O)(/C=C/c1ccc(O)c(O)c1)CC1CCCCC1"
Reply: 74.7%

Ask: Which viability at 24 h, 100 µM is reported for this molecule? "O=S(=O)(/C=C/c1ccc(O)c(O)c1)CC1CC1"
Reply: 87.8%

Each recorded value in this set is attributed to ChEMBL document CHEMBL4346690.
